Source of measurements: ChEMBL document CHEMBL3864190

# testProtocol: Efflux ratio of apparent permeability from basolateral to apical side over apical to basolateral side in human Caco2 cells
# Type: ADME, cell-based
# reportedConditions: caco-2
readoutKind: efflux ratio
Quick one: just the number, no unit, thanks!

Provide efflux ratio value for the following molecule: Nc1ccc2c(c1)CC(n1nc(-c3cc(F)c4c(c3)NCCO4)c3c(N)ncnc31)C2 (stereo in doubt; (+)-32)
1.3

====

# testProtocol: Clearance in mouse plasma at 1 mg/kg, iv or 5 mg/kg, po by HPLC/MS analysis
# Type: ADME, organism-based
readoutKind: clearance
Report as: number unit

Give the reported clearance for this compound. Nc1ncnc2c1c(-c1ccc(Br)c(O)c1)nn2C1Cc2ccccc2C1
63.7 mL/min/kg

====

# testProtocol: Half life in mouse plasma at 15 mg/kg, po by HPLC/MS analysis
# Type: ADME, organism-based
readoutKind: half-life (min)
I only need the number, in min, no unit after it.

Nc1ncnc2c1c(-c1ccc(F)c(O)c1)nn2C1Cc2ccccc2C1	48
Nc1ncnc2c1c(-c1cc(O)cc(Cl)c1)nn2C1Cc2ccccc2C1	36
COc1ccc(-c2nn(C3Cc4ccccc4C3)c3ncnc(N)c23)cc1O	378

Indicate its recorded half-life; the compound in question is Nc1ncnc2c1c(-c1cc(O)cc(F)c1)nn2C1Cc2ccccc2C1
186

Determine from records and report half-life for Nc1ncnc2c1c(-c1cc(O)c(F)c(F)c1)nn2C1Cc2ccccc2C1
57

====

# testProtocol: Oral bioavailability in mouse plasma at 5 mg/kg by HPLC/MS analysis
# Assay type: ADME, organism-based
readoutKind: bioavailability

Supply measured bioavailability of Nc1ncnc2c1c(-c1ccc(Br)c(O)c1)nn2C1Cc2ccccc2C1 in your reply.
6.9%

====

# testProtocol: Drug metabolism in mouse liver microsomes assessed as UGT-mediated compound glucuronidation by measuring parent compound remaining at 5 uM after 30 mins in presence of UDPGA by LC-MS/MS analysis
# Format: ADME
# reportedConditions: liver microsomes, read-out: Stability
readoutKind: remaining at 0.5 h, 5 µM

Nc1ncnc2c1c(-c1ccc(Br)c(O)c1)nn2C1Cc2ccccc2C1	13%
COc1ccc(-c2nn(C3Cc4ccccc4C3)c3ncnc(N)c23)cc1N	89%
COc1ccc(-c2nn(C3Cc4ccccc4C3)c3ncnc(N)c23)cc1O	12%

Answer with the recorded remaining at 0.5 h, 5 µM of Nc1cc(-c2nn(C3Cc4ccccc4C3)c3ncnc(N)c23)ccc1F only.
92%

Fill in reported remaining at 0.5 h, 5 µM for this entry: Nc1ccc2c(c1)CC(n1nc(-c3cc(F)c4c(c3)NCCO4)c3c(N)ncnc31)C2 (stereo in doubt; (+)-32)
93%

Supply reported remaining at 0.5 h, 5 µM belonging to this compound: Nc1cc(-c2nn(C3Cc4ccccc4C3)c3ncnc(N)c23)cc(F)c1F
97%

====

# testProtocol: Drug metabolism in human liver microsomes assessed as UGT-mediated compound glucuronidation by measuring parent compound remaining at 5 uM after 30 mins in presence of UDPGA by LC-MS/MS analysis
# Type: ADME
# reportedConditions: read-out: Stability
readoutKind: remaining at 0.5 h, 5 µM (%)
Give just the numeric value; % need not be written.

# annotated cases, reported remaining at 0.5 h, 5 µM shown
COc1ccc(-c2nn(C3Cc4ccccc4C3)c3ncnc(N)c23)cc1O	7
Nc1ncnc2c1c(-c1ccc(Br)c(O)c1)nn2C1Cc2ccccc2C1	5.2
Nc1ncnc2c1c(-c1cc(O)c(F)c(F)c1)nn2C1Cc2ccccc2C1	3.7
Nc1ccc2c(c1)CC(n1nc(-c3cc(F)c4c(c3)NCCO4)c3c(N)ncnc31)C2 (stereo in doubt; (+)-32)	91

Turning now to a further record.
Note down remaining at 0.5 h, 5 µM recorded for Nc1ncnc2c1c(-c1cc(O)cc(F)c1)nn2C1Cc2ccccc2C1
1.3

====

# testProtocol: Drug metabolism in human liver microsomes assessed as compound oxidation by measuring parent compound remaining at 1 uM after 30 mins in presence of NADPH by LC-MS/MS analysis
# Assay type: ADME
# reportedConditions: liver microsomes, read-out: Stability
// boundary case: remaining at 0.5 h, 1 µM equal to 70% maps to no; strictly smaller maps to yes

Observe how each entry below is paired with its result.
Nc1ncnc2c1c(-c1cc(O)c(F)c(F)c1)nn2C1Cc2ccccc2C1	no
Nc1ncnc2c1c(-c1ccc(Br)c(O)c1)nn2C1Cc2ccccc2C1	yes
Nc1ncnc2c1c(-c1cc(O)cc(F)c1)nn2C1Cc2ccccc2C1	yes

Attention now shifts to the item below.
Please let me know if COc1ccc(-c2nn(C3Cc4ccccc4C3)c3ncnc(N)c23)cc1O shows remaining at 0.5 h, 1 µM below 70%.
yes

====

Measured AUC by item
# testProtocol: AUC in mouse plasma at 15 mg/kg, po by HPLC/MS analysis
# Assay type: ADME, organism-based
Provide the reading as a plain figure in µM·h.

COc1ccc(-c2nn(C3Cc4ccccc4C3)c3ncnc(N)c23)cc1O	2.37
Nc1ncnc2c1c(-c1cc(O)cc(Cl)c1)nn2C1Cc2ccccc2C1	0.033
Nc1ncnc2c1c(-c1ccc(F)c(O)c1)nn2C1Cc2ccccc2C1	0.211
Nc1ncnc2c1c(-c1cc(O)cc(F)c1)nn2C1Cc2ccccc2C1	0.177

Below: the item to evaluate.
Determine from records and report AUC for Nc1ncnc2c1c(-c1cc(O)c(F)c(F)c1)nn2C1Cc2ccccc2C1
0.073

====

# studySystem: Tyrosine-protein kinase BTK (Homo sapiens)
# Sequence (Q06187 whole entry): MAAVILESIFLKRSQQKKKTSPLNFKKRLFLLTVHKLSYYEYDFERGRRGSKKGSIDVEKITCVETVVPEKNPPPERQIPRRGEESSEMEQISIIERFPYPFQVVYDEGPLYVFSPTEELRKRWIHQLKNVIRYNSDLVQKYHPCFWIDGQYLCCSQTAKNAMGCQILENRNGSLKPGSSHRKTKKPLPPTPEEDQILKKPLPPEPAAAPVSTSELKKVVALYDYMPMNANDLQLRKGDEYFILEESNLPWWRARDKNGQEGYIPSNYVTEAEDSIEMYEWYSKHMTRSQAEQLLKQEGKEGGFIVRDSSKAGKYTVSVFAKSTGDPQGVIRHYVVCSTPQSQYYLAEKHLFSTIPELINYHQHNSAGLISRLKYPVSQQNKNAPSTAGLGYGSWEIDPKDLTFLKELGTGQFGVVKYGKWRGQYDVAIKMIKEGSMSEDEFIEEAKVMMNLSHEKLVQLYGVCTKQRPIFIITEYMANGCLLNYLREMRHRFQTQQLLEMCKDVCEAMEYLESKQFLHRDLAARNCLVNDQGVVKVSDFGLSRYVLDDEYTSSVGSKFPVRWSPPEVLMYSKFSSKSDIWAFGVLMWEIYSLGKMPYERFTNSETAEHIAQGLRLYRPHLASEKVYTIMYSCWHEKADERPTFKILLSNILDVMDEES
# reportedConditions: at 100 nM
readoutKind: inhibition (%)
Number only, in %; omit the unit.

Sample answers from the record:
Nc1ncnc2c1c(-c1cc(F)c(F)c(F)c1)nn2C1Cc2ccccc2C1	21
Nc1ncnc2c1c(-c1cc(F)c3c(c1)NCCO3)nn2C1Cc2cc(F)ccc2C1=O (racemic)	6.6
Nc1ncnc2c1c(-c1ccc3cc[nH]c3c1)nn2C1Cc2ccccc2C1	46
Nc1ncnc2c1c(-c1ccc3nc[nH]c3c1)nn2C1Cc2ccccc2C1	9.6
Nc1ncnc2c1c(-c1cc(F)c3c(c1)NCCO3)nn2C1CCc2ccccc2C1 (racemic)	34

Please look at this molecule and report its inhibition: Nc1ncnc2c1c(-c1cc(O)c(F)c(F)c1)nn2C1Cc2ccccc2C1
74

Return value of inhibition for input Nc1cc(-c2nn(C3Cc4ccccc4C3)c3ncnc(N)c23)ccc1F , no commentary.
79

====

# testProtocol: Apparent volume of distribution in mouse plasma at 5 mg/kg, iv or 15 mg/kg, po by HPLC/MS analysis
# Type: ADME, organism-based
# reportedConditions: read-out: Vz
readoutKind: Vd (L/kg)
State just the number; it will be interpreted in L/kg.

Examples with their reported Vd follow.
Nc1ncnc2c1c(-c1cc(O)cc(Cl)c1)nn2C1Cc2ccccc2C1	11.5
Nc1ncnc2c1c(-c1cc(O)cc(F)c1)nn2C1Cc2ccccc2C1	6.01
Nc1ncnc2c1c(-c1cc(O)c(F)c(F)c1)nn2C1Cc2ccccc2C1	12.1

Return reported Vd. Input compound: Nc1ncnc2c1c(-c1ccc(F)c(O)c1)nn2C1Cc2ccccc2C1
5.45

Fill in reported Vd for this entry: COc1ccc(-c2nn(C3Cc4ccccc4C3)c3ncnc(N)c23)cc1O
6.56

====

compounds and their reported clearance
# testProtocol: Clearance in mouse plasma at 5 mg/kg, iv or 15 mg/kg, po by HPLC/MS analysis
# Format: ADME, organism-based
Put your answer as a value accompanied by its unit after it.

Nc1ncnc2c1c(-c1cc(O)cc(Cl)c1)nn2C1Cc2ccccc2C1	156 mL/min/kg
Nc1ncnc2c1c(-c1cc(O)c(F)c(F)c1)nn2C1Cc2ccccc2C1	154 mL/min/kg
COc1ccc(-c2nn(C3Cc4ccccc4C3)c3ncnc(N)c23)cc1O	31.2 mL/min/kg
Nc1ncnc2c1c(-c1ccc(F)c(O)c1)nn2C1Cc2ccccc2C1	122 mL/min/kg

Pending compound:
Read the entry Nc1ncnc2c1c(-c1cc(O)cc(F)c1)nn2C1Cc2ccccc2C1 and write its reported clearance.
85 mL/min/kg

====

# testProtocol: Oral bioavailability in mouse plasma at 10 mg/kg by HPLC/MS analysis
# Format: ADME, organism-based
# reportedConditions: plasma
readoutKind: bioavailability (%)
Output spec: scalar in %, unitless text.

For the compound Nc1ccc2c(c1)CC(n1nc(-c3cc(F)c4c(c3)NCCO4)c3c(N)ncnc31)C2 (stereo in doubt; (+)-32) , report bioavailability.
57

====

# testProtocol: Drug metabolism in rat liver microsomes assessed as compound oxidation by measuring parent compound remaining at 1 uM after 30 mins in presence of NADPH by LC-MS/MS analysis
# Type: ADME
# reportedConditions: liver microsomes, read-out: Stability
readoutKind: remaining at 0.5 h, 1 µM (%)
Lab book: enter the figure in %, no units written.

Write down remaining at 0.5 h, 1 µM measured for item Nc1ccc2c(c1)CC(n1nc(-c3cc(F)c4c(c3)NCCO4)c3c(N)ncnc31)C2 (stereo in doubt; (+)-32)
45

====

# studySystem: Tyrosine-protein kinase BTK (Homo sapiens)
# reportedConditions: at 100 nM
readoutKind: inhibition (%)
I only need the number, in %, no unit after it.

Check out these entries, answers already filled in.
Nc1ncnc2c1c(-c1ccc3c(c1)NCCO3)nn2C1Cc2ccccc2C1	57
Nc1ncnc2c1c(-c1cccc(O)c1)nn2C1Cc2ccccc2C1	66
Nc1ncnc2c1c(-c1cc(F)c3c(c1)NCCO3)nn2C1Cc2ccccc2C1	52

State its inhibition for this compound: Nc1cc(-c2nn(C3Cc4ccccc4C3)c3ncnc(N)c23)cc(F)c1F
63

Return reported inhibition. Input compound: COc1ccc(-c2nn(C3Cc4ccccc4C3)c3ncnc(N)c23)cc1N
72
